This collection of values is drawn from patent USRE36832E.

# tested_target: acyl-CoA:cholesterol O-acyltransferase (ACAT) (Oryctolagus cuniculus)
# Construct: The intestinal mucosa of a white rabbit was homogenized and microsomal fraction was obtained by stepwise centrifugation; from tissue; host or cells: intestinal mucosa of white rabbit, microsomal fraction
# Sequence (G1SFD9 1-524): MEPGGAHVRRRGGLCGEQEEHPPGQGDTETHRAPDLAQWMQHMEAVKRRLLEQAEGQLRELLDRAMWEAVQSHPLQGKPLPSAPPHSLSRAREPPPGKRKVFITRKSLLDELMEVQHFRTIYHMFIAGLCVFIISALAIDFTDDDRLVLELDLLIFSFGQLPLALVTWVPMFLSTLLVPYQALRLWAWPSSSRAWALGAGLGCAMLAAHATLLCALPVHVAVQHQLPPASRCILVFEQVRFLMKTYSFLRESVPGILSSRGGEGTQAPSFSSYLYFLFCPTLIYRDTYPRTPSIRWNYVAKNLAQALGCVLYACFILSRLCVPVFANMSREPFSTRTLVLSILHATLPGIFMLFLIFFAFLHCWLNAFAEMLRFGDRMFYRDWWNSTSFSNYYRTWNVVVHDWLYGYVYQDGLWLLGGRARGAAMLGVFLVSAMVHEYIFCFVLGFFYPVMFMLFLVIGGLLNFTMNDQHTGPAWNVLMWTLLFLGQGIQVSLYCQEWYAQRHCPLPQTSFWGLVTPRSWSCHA
# procedure_text: Inhibitory activity on acyl-CoA:cholesterol O-acyltransferase (ACAT), intestinal mucosa microsomal fraction, [1-14C]oleyl-CoA incorporation into cholesterol esters
# Format: biochemical, white rabbit
# conditions_used: 0.01 μM; read-out: Inhibition rate %
recorded_metric: inhibition at 0.01 µM (%)

smiles_data=CCc1cccc(CC)c1NC(=O)Nc1sc2ccc(C)cc2c1-c1ccccc1Cl tested_target="acyl-CoA:cholesterol O-acyltransferase (ACAT) (Oryctolagus cuniculus)" units_label=% assay_value=60.6
smiles_data=CC(C)c1cccc(C(C)C)c1NC(=O)Nc1oc2ccc(F)cc2c1-c1ccccc1Cl tested_target="acyl-CoA:cholesterol O-acyltransferase (ACAT) (Oryctolagus cuniculus)" units_label=% assay_value=58.3
smiles_data=O=C(Nc1ccc(F)cc1F)Nc1oc2cc3c(cc2c1-c1ccccc1Cl)CCC3 tested_target="acyl-CoA:cholesterol O-acyltransferase (ACAT) (Oryctolagus cuniculus)" units_label=% assay_value=32.1
smiles_data=O=C(Nc1ccc(F)cc1F)Nc1sc2cc3c(cc2c1-c1ccccc1Cl)CCC3 tested_target="acyl-CoA:cholesterol O-acyltransferase (ACAT) (Oryctolagus cuniculus)" units_label=% assay_value=81.7
smiles_data=CC(C)c1cccc(C(C)C)c1NC(=O)Nc1oc2cc3c(cc2c1-c1ccccc1Cl)CCC3 tested_target="acyl-CoA:cholesterol O-acyltransferase (ACAT) (Oryctolagus cuniculus)" units_label=% assay_value=43.7
smiles_data=CCc1cccc(CC)c1NC(=O)Nc1sc2cc3c(cc2c1-c1ccccc1Cl)CCC3 tested_target="acyl-CoA:cholesterol O-acyltransferase (ACAT) (Oryctolagus cuniculus)" units_label=% assay_value=85.8
smiles_data=O=C(Nc1sc2cc3c(cc2c1-c1ccccc1Cl)CCC3)Nc1c(F)cc(F)cc1F tested_target="acyl-CoA:cholesterol O-acyltransferase (ACAT) (Oryctolagus cuniculus)" units_label=% assay_value=76.7
smiles_data=Cc1cc2oc(NC(=O)Nc3c(C)cccc3C(C)C)c(-c3ccccc3Cl)c2cc1C tested_target="acyl-CoA:cholesterol O-acyltransferase (ACAT) (Oryctolagus cuniculus)" units_label=% assay_value=70.9
